assay.comment: Octanol/saline solubility and partition coefficient, shake-flask technique
measurement.context: physiological saline as aqueous solution; sodium salts
property: Water mg/ml (solubility in aqueous solution)

In: Please report the recorded Water mg/ml (solubility in aqueous solution) for CCCCCCCCCCCCC(CCC)C(=O)[O-].[Na+] (stereo not shown) [3,12-Na, reference compound] .
Out: >10 mg/mL

In: Now the same for CCCCCCCC(CCCCCCC)OP(=O)(O)O [7,7-PO4, 8-Pentadecyl phosphate]
Out: >10 mg/mL

In: Now the same for CCCCCCCCCCCCCCCCC(CCC)C(=O)[O-].[Na+] (stereo not shown) [3,16-Na, reference compound]
Out: 9.4 mg/mL

In: Now the same for CCCCCCCC(CCCCCCC)C(=O)[O-].[Na+] [7,7-Na, reference compound]
Out: >25 mg/mL

* * *

Test system: blood brain barrier (BBB)
assay.comment: BBB permeabilization in rats, Evans blue extravasation into brain
Assay type: in vivo, Sprague-Dawley rats
measurement.context: Table 6; rat brains, Evans blue extravasation; read-out: EQ50 (the source's name)
Listed next: entries and their corresponding pEC50.
Keep in mind that pEC50 stands for -log10 of concentration in molar terms.

Examples from the recorded data:
> print(dat)
                                   molecule  quantitative.readout
1  CCCCCCCCCCCCC(CCC)C(=O)OCCOCCOP(=O)([O-])OCC[N+](C)(C)C (stereo not shown) [3,12-DEG-PC]                  4.15
2  CCCCCCCCCCCCC(CCC)OP(=O)([O-])[O-].[Na+].[Na+] (stereo not shown) [3,12-PO4Na2, 4-Hexadecanyl Disodium Phosphate]                  4.26
3  CCCCCCCCCCCCC(CCC)OP(=O)([O-])OCC[N+](C)(C)C (stereo not shown) [3,12-PC, 4-Hexadecanyl phosphocholine]                  4.12
4  CCCCCCCCCCCCC(CCC)C(=O)OCCOP(=O)([O-])[O-].[Na+].[Na+] (stereo not shown) [3,12-MEG-PO4Na2]                  4.74
5  CCCCCCCCCCCCC(CCC)C(=O)OCCOP(=O)([O-])OCC[N+](C)(C)C (stereo not shown) [3,12-MEG-PC]                  4.71
6  CCCCCCCCCCCCC(CCC)C(=O)OCCOCCOP(=O)([O-])[O-].[Na+].[Na+] (stereo not shown) [3,12-DEG-PO4Na2]                  4.70

In: Please report the recorded pEC50 for CCCCCCCCCCCCC(CCC)OCCOCCOP(=O)([O-])[O-].[Na+].[Na+] (stereo not shown) [3,12-(ether)-DEG-PO4Na2] .
Out: 4.27

* * *

Type: in vivo
measurement.context: rats, i.a., viability monitored 24 hours; sodium salt
I'd appreciate it if you marked entries true when LC (minimal concentration that caused death) is lower than 300 µM and false when it is not.

Previously resolved entries follow.
> print(dat)
                                   molecule  label.value
1  CCCCCCCC(CCCCCCC)C(=O)[O-].[Na+] [7,7-Na, reference compound]        false
2  CCCCCCCCCCCCCCCCC(CCC)C(=O)[O-].[Na+] (stereo not shown) [3,16-Na, reference compound]        false
3  CCCCCCCCCCCCCCC(CCC)C(=O)[O-].[Na+] (stereo not shown) [3,14-Na, reference compound]         true

In: Report whether reported LC (minimal concentration that caused death) is lower than 300 µM (strictly) for CCCCCCCCCCCCC(CCC)C(=O)OCCOP(=O)([O-])OCC[N+](C)(C)C (stereo not shown)
Out: true

In: Now the same for CCCCCCCCCCCCC(CCC)OP(=O)([O-])OCC[N+](C)(C)C (stereo not shown)
Out: true

In: Now the same for CCCCCCCCCCCCC(CCC)C(=O)[O-].[Na+] (stereo not shown) [3,12-Na, reference compound]
Out: true
